target: Aminopeptidase N (Sus scrofa, UniProt P15145)
Sequence (P15145 whole entry): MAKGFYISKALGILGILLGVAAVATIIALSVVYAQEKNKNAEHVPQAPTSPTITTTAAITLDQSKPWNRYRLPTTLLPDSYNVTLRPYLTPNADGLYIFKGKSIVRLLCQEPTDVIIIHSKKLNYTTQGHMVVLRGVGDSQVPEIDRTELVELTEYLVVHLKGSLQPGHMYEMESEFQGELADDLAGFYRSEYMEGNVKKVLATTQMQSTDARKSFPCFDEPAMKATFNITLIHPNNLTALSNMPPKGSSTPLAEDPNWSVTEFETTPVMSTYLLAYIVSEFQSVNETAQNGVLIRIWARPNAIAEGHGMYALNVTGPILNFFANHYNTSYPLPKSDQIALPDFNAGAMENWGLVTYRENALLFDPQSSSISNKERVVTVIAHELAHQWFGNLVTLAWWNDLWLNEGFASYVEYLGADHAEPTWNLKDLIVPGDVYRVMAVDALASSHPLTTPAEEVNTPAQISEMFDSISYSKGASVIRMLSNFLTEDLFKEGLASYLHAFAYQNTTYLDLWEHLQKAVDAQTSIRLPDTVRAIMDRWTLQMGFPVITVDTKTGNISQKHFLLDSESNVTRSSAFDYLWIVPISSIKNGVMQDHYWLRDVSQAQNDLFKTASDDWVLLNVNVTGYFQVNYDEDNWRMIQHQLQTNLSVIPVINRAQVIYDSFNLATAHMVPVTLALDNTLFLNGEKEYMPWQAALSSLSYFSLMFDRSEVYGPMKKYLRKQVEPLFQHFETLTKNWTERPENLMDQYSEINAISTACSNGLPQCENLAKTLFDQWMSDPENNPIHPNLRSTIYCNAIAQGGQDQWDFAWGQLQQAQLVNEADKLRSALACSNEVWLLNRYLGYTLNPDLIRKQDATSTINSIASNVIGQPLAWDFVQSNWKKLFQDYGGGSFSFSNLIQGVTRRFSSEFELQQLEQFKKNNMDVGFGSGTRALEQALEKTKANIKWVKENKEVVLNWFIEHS
pIC50: −log10 of the molar value.
measuredProperty: pIC50

State pIC50 on Aminopeptidase N (Sus scrofa, UniProt P15145). Entry: O=C1NC(=O)C(N=Nc2cc([N+](=O)[O-])ccc2O)C(=O)N1 < 3.00

Data origin: BindingDB's records for doi:10.1016/j.bmcl.2012.07.086
